Target: EPAC1-CNBD (Homo sapiens)
Experiment: 8-NBD-cAMP competition binding assay, EPAC1-CNBD
Settings: compound 10 µM, EPAC1-CNBD 0.8 µM, 8-NBD-cAMP 62.5 nM; mean ± SEM; lower RFI = stronger binding
property-name: RFI (%) (relative fluorescence intensity), Table 4

Examples with their reported RFI (%) (relative fluorescence intensity), Table 4 follow.
COc1ccc2ccc(OCC(=O)NS(=O)(=O)c3ccc([N+](=O)[O-])cc3OC)cc2c1 [Compound 25m]; 24
COc1ccc(OC)c(S(=O)(=O)NC(=O)COc2ccc3ccc(OC)cc3c2)c1 [Compound 25o]; 49
Nc1ccc(S(=O)(=O)NC(=O)COc2ccc3ccccc3c2)cc1F [Compound 25f]; 81

I. Cc1cc(-c2ccco2)cc(S(=O)(=O)NC(=O)COc2ccc3ccccc3c2)c1 [Compound 25s]
II. Cc1cc(Nc2ccc(C(F)(F)F)cn2)cc(S(=O)(=O)NC(=O)COc2ccc3ccccc3c2)c1 [Compound 25v]
Lower RFI (%) (relative fluorescence intensity), Table 4: I or II ? Which one? Tell me its label.
II
(II: 20%, I: 40%)

---

Biological target: EPAC1-CNBD (Homo sapiens)
Sequence (O95398 169-318 isoform O95398-3): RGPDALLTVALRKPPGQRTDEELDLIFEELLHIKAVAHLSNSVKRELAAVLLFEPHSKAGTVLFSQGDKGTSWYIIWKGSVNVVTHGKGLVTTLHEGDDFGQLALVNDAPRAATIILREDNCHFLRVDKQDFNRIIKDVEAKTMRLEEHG
Test: 8-NBD-cAMP competition binding assay, EPAC1-CNBD
Conditions: compound 10 µM, EPAC1-CNBD 0.8 µM, 8-NBD-cAMP 62.5 nM; mean ± SEM; lower RFI = stronger binding
property-name: RFI (%) (relative fluorescence intensity), Table 1

Cc1cc(C)c(S(=O)(=O)NC(=O)COc2ccc3c(c2)CCCC3)c(C)c1; 77
Cc1cc(C)c(S(=O)(=O)NC(=O)COc2ccc3cccnc3c2)c(C)c1; 92
COc1cc2c(cc1OC)CN(CC(=O)NS(=O)(=O)c1c(C)cc(C)cc1C)CC2; 102

---

Biological target: EPAC1 (Homo sapiens)
Assay: Active Rap1 pull-down in U2OS cells stably transfected with EPAC1
Assay type: cell-based
Parameters: expressed in transfected cells; host or cells: U2OS cells (from Professor Holger Rehmann, University of Utrecht)
Conditions: U2OS-EPAC1, 100 µM compound, 10 min, FIG. 7
property-name: Rap1 activation in EPAC1 cells

COc1ccc2ccc(OCC(=O)NS(=O)(=O)c3ccc(N)cc3OC)cc2c1 [Compound 25n]; activate EPAC1 in cells
COc1ccc2ccc(OCC(=O)NS(=O)(=O)c3ccc4ccccc4c3)cc2c1 [Compound 25q]; activate EPAC1 in cells
COc1ccc(S(=O)(=O)NC(=O)COc2ccc3ccccc3c2)c(OC)c1 [Compound 25g]; activate EPAC1 in cells

---

Target: EPAC1-CNBD (Homo sapiens)
Sequence (O95398 169-318 isoform O95398-3): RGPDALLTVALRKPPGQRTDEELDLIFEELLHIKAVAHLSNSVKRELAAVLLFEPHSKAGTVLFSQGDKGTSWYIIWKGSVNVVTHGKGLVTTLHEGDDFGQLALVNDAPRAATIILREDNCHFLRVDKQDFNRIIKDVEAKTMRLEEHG
Experiment: 8-NBD-cAMP competition binding assay, EPAC1-CNBD
Settings: compound 10 µM, EPAC1-CNBD 0.8 µM, 8-NBD-cAMP 62.5 nM; mean ± SEM; lower RFI = stronger binding
property-name: RFI (%) (relative fluorescence intensity), Table 4

Answered cases to consult:
Cc1cc(C)cc(S(=O)(=O)NC(=O)COc2ccc3ccccc3c2)c1 [Compound 25a]; 38
COc1ccc2ccc(OCC(=O)NS(=O)(=O)c3ccc4ccccc4c3)cc2c1 [Compound 25q]; 14
COc1ccc2ccc(OCC(=O)NS(=O)(=O)c3cc(C)cc(Br)c3)cc2c1 [Compound 25k]; 29
O=C(COc1ccc2ccccc2c1)NS(=O)(=O)c1cccc(-c2ccccc2)c1 [Compound 25ac]; 35

P. Cc1cc(-c2cncc(F)c2)cc(S(=O)(=O)NC(=O)COc2ccc3ccccc3c2)c1 [Compound 25r]
Q. O=C(COc1ccc2ccccc2c1)NS(=O)(=O)c1ccc(F)cc1 [Compound 25d]
R. COc1ccc2ccc(OCC(=O)NS(=O)(=O)c3ccc(OC)c(OC)c3)cc2c1 [Compound 25p]
# ascending order, key=RFI (%) (relative fluorescence intensity), Table 4 Submit the labels in the order that the ranking request calls for.
R, P, Q
